The following compounds are shown together with reported pEC50 values.
Tested on: HIV-1 single-round infectious reporter virus
test.description: Single-round infectious HIV-1 luciferase reporter virus infection of HeLa CD4 cells (antiviral EC50)
Assay type: cell-based
applied.conditions: Human immunodeficiency virus 1, HeLa, read-out: EC50 Group from Table 3
pEC50: −log10 of the molar value. Counter-ions that a name gives are not always drawn.

Answered cases to consult:
[
  {
    "compound": "O=C(C(=O)N1CCN(c2cccc(C3CCCCC3)c2)CC1)c1c[nH]c2c(-n3ccnn3)ncc(F)c12",
    "system": "HIV-1 single-round infectious reporter virus",
    "parameter": "pEC50",
    "experimental.result": "< 6.30"
  },
  {
    "compound": "CN(C)CCCNC(=O)c1cccnc1N1CCN(C(=O)C(=O)c2c[nH]c3c(-n4ccnn4)ncc(F)c23)CC1",
    "system": "HIV-1 single-round infectious reporter virus",
    "parameter": "pEC50",
    "experimental.result": "< 6.30"
  },
  {
    "compound": "COc1cnc(-c2cc(CNCCN(C)C)[nH]n2)c2[nH]cc(C(=O)C(=O)N3CCN(c4nnnn4-c4ccccc4)CC3)c12 [B-25, TFA]",
    "system": "HIV-1 single-round infectious reporter virus",
    "parameter": "pEC50",
    "experimental.result": "> 6.30"
  },
  {
    "compound": "CCOC(=O)CCC(=O)c1cccnc1N1CCN(C(=O)C(=O)c2c[nH]c3c(-n4ccnn4)ncc(F)c23)CC1",
    "system": "HIV-1 single-round infectious reporter virus",
    "parameter": "pEC50",
    "experimental.result": "< 6.30"
  },
  {
    "compound": "CN(C)CCNc1ccn(-c2ncc(F)c3c(C(=O)C(=O)N4CCN(c5nnnn5-c5ccccc5)CC4)c[nH]c23)n1 [B-23, TFA]",
    "system": "HIV-1 single-round infectious reporter virus",
    "parameter": "pEC50",
    "experimental.result": "> 6.30"
  },
  {
    "compound": "COc1cnc(-c2ccc(N)nc2)c2[nH]cc(C(=O)C(=O)N3CCN(c4nnnn4-c4ccccn4)CC3)c12",
    "system": "HIV-1 single-round infectious reporter virus",
    "parameter": "pEC50",
    "experimental.result": "> 6.30"
  }
]

// moving on: another record for pEC50
Note down pEC50 recorded for CCOc1ncc(-c2ncc(OC)c3c(C(=O)C(=O)N4CCN(c5nnnn5-c5ccccn5)CC4)c[nH]c23)s1
> 6.30

###

Recorded pEC50 by entry
Tested on: HIV-1 single-round infectious reporter virus
test.description: Single-round infectious HIV-1 luciferase reporter virus infection of HeLa CD4 cells (antiviral EC50)
Assay type: cell-based
applied.conditions: Human immunodeficiency virus 1, HeLa, read-out: EC50 Group from Table 3
pEC50: −log10 of the molar value. Counter-ions that a name gives are not always drawn.

Some compounds with known pEC50 results, for comparison:
[
  {
    "compound": "COc1cnc(-c2ccc(N3CCN(C(=O)OC(C)(C)C)CC3)cc2)c2[nH]cc(C(=O)C(=O)N3CCN(c4nnnn4-c4ccccn4)CC3)c12",
    "pEC50": "> 6.30"
  },
  {
    "compound": "COc1cnc(-c2cc(CN(C)CCN(C)C)[nH]n2)c2[nH]cc(C(=O)C(=O)N3CCN(c4nnnn4-c4ccccc4)CC3)c12 [B-26, TFA]",
    "pEC50": "> 6.30"
  },
  {
    "compound": "O=C(C(=O)N1CCN(c2ncccc2I)CC1)c1c[nH]c2c(-n3ccnn3)ncc(F)c12",
    "pEC50": "> 6.30"
  }
]

Report pEC50 for O=C(C(=O)N1C[C@@H]2C[C@H]1CN2c1nnnn1-c1ccccc1)c1c[nH]c2c(-n3ccnn3)ncc(F)c12
< 6.30

Give reported pEC50 value for N#Cc1ccc(-n2nnnc2N2CCN(C(=O)C(=O)c3c[nH]c4c(-n5ccnn5)ncc(F)c34)CC2)cc1
< 6.30

Give the measured pEC50 for O=C(C(=O)N1CCN(c2cncnc2-c2ccccc2)CC1)c1c[nH]c2c(-n3ccnn3)ncc(F)c12 [G-19a]
> 6.30

In one line, give reported pEC50 of the entry COc1cnc(-n2cnc(C)n2)c2[nH]cc(C(=O)C(=O)N3CCN(c4cnnn4-c4ccccn4)CC3)c12 [G-22b] .
> 6.30

###

System: HIV-1 single-round infectious reporter virus
test.description: Single-round infectious HIV-1 luciferase reporter virus infection of HeLa CD4 cells (antiviral EC50)
Type: cell-based
applied.conditions: Human immunodeficiency virus 1, HeLa, read-out: EC50 Group from Table 3
pEC50: −log10 of the molar value.
parameter: pEC50

// below: answered compounds
[
  {
    "compound": "COc1cnc(-n2cnc(C)n2)c2[nH]cc(C(=O)C(=O)N3CCN(c4nnnn4-c4ccccc4)[C@H](C)C3)c12",
    "pEC50": "> 6.30"
  },
  {
    "compound": "COc1cnc(-n2cnc(C)n2)c2[nH]cc(C(=O)C(=O)N3CCN(c4nn(C)c(=O)cc4-c4ccccc4)C[C@H]3C)c12",
    "pEC50": "< 6.30"
  },
  {
    "compound": "CNCc1nc(-c2ncc(OC)c3c(C(=O)C(=O)N4CCN(c5nnnn5-c5ccccc5)CC4)c[nH]c23)cs1",
    "pEC50": "> 6.30"
  }
]

Provide measured pEC50 value, entry: COc1cnc(-c2cc(C(=O)O)[nH]n2)c2[nH]cc(C(=O)C(=O)N3CCN(c4nnnn4-c4ccccc4)CC3)c12
> 6.30

Tell me measured pEC50 for O=C(C(=O)N1CCN(c2nnc(O)n2-c2ccccc2)CC1)c1c[nH]c2c(-n3ccnn3)ncc(F)c12 please.
> 6.30

Read the entry COc1cnc(-n2cnc(C)n2)c2[nH]cc(C(=O)C(=O)N3CCN(c4ncccc4C(O)c4nccs4)CC3)c12 (stereo not shown) and write its reported pEC50.
> 6.30

Answer with reported pEC50 of N#Cc1cccc(-n2nnnc2N2CCN(C(=O)C(=O)c3c[nH]c4c(-n5ccnn5)ncc(F)c34)CC2)c1
< 6.30

###

Test system: HIV-1 single-round infectious reporter virus
test.description: Single-round infectious HIV-1 luciferase reporter virus infection of HeLa CD4 cells (antiviral EC50)
Type: cell-based
applied.conditions: Human immunodeficiency virus 1, HeLa, read-out: EC50 Group from Table 3
parameter: EC50

[
  {
    "compound": "Cn1ncc(N2CCN(C(=O)C(=O)c3c[nH]c4c(-n5ccnn5)ncc(F)c34)CC2)c1-c1ccccc1 [G-13a]",
    "EC50": "< 500 nM"
  },
  {
    "compound": "COc1cnc(-n2cnc(C)n2)c2[nH]cc(C(=O)C(=O)N3CCN(c4ncnc5cc(-c6ccccc6)sc45)C[C@H]3C)c12",
    "EC50": "> 500 nM"
  },
  {
    "compound": "CCOC(=O)CCCCCC(=O)c1cccnc1N1CCN(C(=O)C(=O)c2c[nH]c3c(-n4ccnn4)ncc(F)c23)CC1",
    "EC50": "> 500 nM"
  },
  {
    "compound": "CCOC(=O)c1cc(-c2ncc(F)c3c(C(=O)C(=O)N4CCN(c5nnnn5-c5ccccc5)CC4)c[nH]c23)n[nH]1",
    "EC50": "< 500 nM"
  }
]

Supply recorded EC50 for O=C(C(=O)N1CCC(N2CCC2c2ccccc2)CC1)c1c[nH]c2c(-n3ccnn3)ncc(F)c12 (stereo not shown) here.
> 500 nM

Input O=C(C(=O)N1CCN(c2nc3ccccc3n2-c2ccccc2)CC1)c1c[nH]c2c(-n3ccnn3)ncc(F)c12 , output reported EC50.
< 500 nM

Input O=C(C(=O)N1CCN(c2c[nH]nc2-c2ccccc2)CC1)c1c[nH]c2c(-n3ccnn3)ncc(F)c12 , output reported EC50.
< 500 nM

###

# reported pEC50; entries follow
Tested on: HIV-1 single-round infectious reporter virus
test.description: Single-round infectious HIV-1 luciferase reporter virus infection of HeLa CD4 cells (antiviral EC50)
Type: cell-based
applied.conditions: Human immunodeficiency virus 1, HeLa, read-out: EC50 Group from Table 3
pEC50: −log10 of the molar value. Where a name gives a salt, the structure may show the parent alone.

Specify pEC50 for COc1cnc(-c2cc(CNCCc3ccncc3)[nH]n2)c2[nH]cc(C(=O)C(=O)N3CCN(c4nnnn4-c4ccccc4)CC3)c12 [B-27, TFA] and stop.
> 6.30

Supply recorded pEC50 for Cc1ccnn1-c1ncc(F)c2c(C(=O)C(=O)N3CCN(c4nnnn4-c4ccccc4)CC3)c[nH]c12 here.
> 6.30

Quickly give me recorded pEC50 for COc1cnc(-c2cc(C(=O)NCCN3CCOCC3)[nH]n2)c2[nH]cc(C(=O)C(=O)N3CCN(c4nnnn4-c4ccccc4)CC3)c12
> 6.30

Please report pEC50 for the following compound: C[C@H]1CN(C(=O)C(=O)c2c[nH]c3c(-n4ccnn4)ncc(F)c23)CCN1c1nnnn1-c1ccccc1
> 6.30

# return recorded pEC50 for entry CO/N=C(\C)c1ncc(F)c2c(C(=O)C(=O)N3CCN(c4nnnn4-c4ccccc4)CC3)c[nH]c12
> 6.30

Entry CCOC(=O)c1cc(-c2ncc(F)c3c(C(=O)C(=O)N4CCN(c5nnnn5-c5ccccc5)CC4)c[nH]c23)nn1C needs its pEC50 filled in; supply it.
> 6.30
